- Test: NCI Yeast Anticancer Drug Screen. Data for the sgs1 mgt1 strain (AID 161);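 also: 0% = growth of cultures given vehicle only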
- Measurement Parameters: S. cerevisiae sgs1 mgt1 strain, at 50.0 µM, stronger effect = higher value
About 79,000 compounds went through this panel and 15% of them were active in at least one assay; those are over-represented in the sample as a whole. The source made the active and inactive calls. Rule as the data show it: active = growth inhibition above about 70%; inactive = the rest.
Kindly supply the reported growth inhibition values for the records listed here.

Ask: Identify measured growth inhibition associated with CCCCNS(=O)(=O)c1cc(C(=O)O)cc(C(=O)O)c1
Result: 4.25% (inactive)

Ask: Identify measured growth inhibition associated with CC1=C(C(=O)NNC(=O)c2ccccc2O)CC(C(=O)NNC(=O)c2ccccc2O)=C(C)N1
Result: 10.5% (inactive)

Ask: Identify measured growth inhibition associated with CC1(CO)C(O)CCC2(C)C1C(O)CC1CC3CC12CCC3(O)CO (stereo not drawn)
Result: 1.3% (inactive)

Ask: Identify measured growth inhibition associated with CC(C)(O)C1OCC(C2CCC3(C)C4=CCC5C(C)(C)C(O)CCC5(C)C4CCC23C)CC1O (stereo not drawn)
Result: 34.8% (inactive)

Ask: Identify measured growth inhibition associated with CCOC(=O)c1c(C)c2c(n1C)CC/C(=C\N1CCOCC1)C2=O
Result: 13.6% (inactive)

Ask: Identify measured growth inhibition associated with COc1ccc(C(=O)c2ccc(C)c3c(C)cccc23)cc1
Result: 4.9% (inactive)

Ask: Identify measured growth inhibition associated with OC1c2ccccc2CC12Cc1ccccc1C2 (stereo not drawn)
Result: 37.3% (inactive)

Ask: Identify measured growth inhibition associated with COc1cc(OC)c(OC)cc1/C=N/N=C(\N)NO
Result: -1.95% (inactive)

Ask: Identify measured growth inhibition associated with COC(=O)c1cc(OC)c(O)c(OC)c1
Result: 16.6% (inactive)

Ask: Identify measured growth inhibition associated with CCOC(=O)C(C(=O)OCC)c1cc(-c2cc3ccccc3o2)oc(=O)c1C#N
Result: 10.2% (inactive)

Ask: Identify measured growth inhibition associated with Cc1cc(Cc2cc(C)c(NC(=O)C(=O)C3CCC4=C(SC5C=CC=CC5N4)C3=O)c(C(C)C)c2)cc(C(C)C)c1NC(=O)C(=O)C1CCC2=C(SC3C=CC=CC3N2)C1=O (stereo not drawn)
Result: -8.1% (inactive)

Ask: Identify measured growth inhibition associated with COc1ccc(OC)c(/C=C/c2ccc(NC(=O)Nc3ccccc3Cl)cc2)c1
Result: -7.9% (inactive)

Ask: Identify measured growth inhibition associated with O=C(O)[C@H]1C[C@H](O)CCN1
Result: -34.2% (inactive)

Ask: Identify measured growth inhibition associated with O=C/C(=C(/Br)I)c1ccccc1
Result: 24.9% (inactive)

Ask: Identify measured growth inhibition associated with CC(Nc1ccc(Br)cc1[N+](=O)[O-])C(=O)O (stereo not drawn)
Result: 58.2% (inactive)

Ask: Identify measured growth inhibition associated with O=S(=O)(O)CS(=O)(=O)O
Result: 8.3% (inactive)

Ask: Identify measured growth inhibition associated with CC(CO)NCc1ccccc1 (stereo not drawn)
Result: -1.95% (inactive)

Ask: Identify measured growth inhibition associated with CC1CN(CC2COc3ccccc3O2)C(C)CN1 (stereo not drawn)
Result: 57.2% (inactive)

Ask: Identify measured growth inhibition associated with CCCCCCCCCCCCCCC/C=C\C(=O)O
Result: -3.4% (inactive)

Ask: Identify measured growth inhibition associated with CCCNc1cc2c(cc1Br)-c1ccccc1C2=O
Result: -10.2% (inactive)

Ask: Identify measured growth inhibition associated with CCCCCCCCCCCCCCCC/C(=C\c1ccc2ccccc2c1)[N+](=O)[O-]
Result: -24.6% (inactive)

Ask: Identify measured growth inhibition associated with O=C(O)Cc1ccc(Br)cc1
Result: 11.9% (inactive)

Ask: Identify measured growth inhibition associated with COc1cc2c(cc1OC)C(=O)/C(=C/c1ccccc1)CC2
Result: 12.2% (inactive)

Ask: Identify measured growth inhibition associated with CCCCCC(=O)NCCCOC
Result: -0.35% (inactive)

Ask: Identify measured growth inhibition associated with CCCC(=O)Oc1ccc(Cl)cc1C
Result: 2.85% (inactive)

Ask: Identify measured growth inhibition associated with Cc1ccccc1N=Nc1c(-c2ccccc2)nn(C(=O)CC(=O)Nc2cccc(Cl)c2)c1-c1ccccc1
Result: 55.5% (inactive)

Ask: Identify measured growth inhibition associated with C[N+](C)([O-])CCNC(=O)c1cccc2cc3ccccc3nc12
Result: -23.5% (inactive)

Ask: Identify measured growth inhibition associated with O=C(c1ccccc1C(=O)N1CCCO1)N1CCCO1
Result: 6.9% (inactive)

Ask: Identify measured growth inhibition associated with CCCCCCCCCCCCNC(C)C1=C(O)c2ccccc2C(=O)C1=O (stereo not drawn)
Result: 50% (inactive)

Ask: Identify measured growth inhibition associated with Oc1ccc(-c2csc(NNC3=NC/C(=C/c4ccc5c(c4)OCO5)S3)n2)cc1O
Result: 40.4% (inactive)

Ask: Identify measured growth inhibition associated with O=C(C(=O)c1ccccc1)c1ccccc1
Result: 11.7% (inactive)

Ask: Identify measured growth inhibition associated with Cc1cc2c(cc1C)OC(=O)CC2
Result: -1.2% (inactive)

Ask: Identify measured growth inhibition associated with O=C(O)CCc1ccc(-c2ccccc2)[nH]1
Result: -11.7% (inactive)

Ask: Identify measured growth inhibition associated with CC(C)=NNC(=O)c1ccccc1CC(O)(c1ccccc1)c1ccccc1
Result: 10.2% (inactive)

Ask: Identify measured growth inhibition associated with CCC(C)(C)c1ccc(OCCOc2ccc(C(=O)O)cc2[N+](=O)[O-])cc1
Result: -3.9% (inactive)

Ask: Identify measured growth inhibition associated with CS(=O)(=O)CCCCCCCCCCS(C)(=O)=O
Result: -4.35% (inactive)

Ask: Identify measured growth inhibition associated with O=C(O)CNc1ccc([N+](=O)[O-])cc1C(=O)O
Result: 2.75% (inactive)

Ask: Identify measured growth inhibition associated with Nc1ccc(S(=O)(=O)N/N=C/c2ccccc2)cc1
Result: 12.1% (inactive)

Ask: Identify measured growth inhibition associated with CCOC(=O)C(=O)C1CCCC(C)C1=O (stereo not drawn)
Result: -16.6% (inactive)

Ask: Identify measured growth inhibition associated with Cc1ccc(S(=O)(=O)OC2CCCC2OS(=O)(=O)c2ccc(C)cc2)cc1 (stereo not drawn)
Result: -8.5% (inactive)

Ask: Identify measured growth inhibition associated with N#Cc1ccc(NC(=O)C(CC(=O)OCc2ccccc2)NC(=O)OCc2ccccc2)cc1 (stereo not drawn)
Result: 3.85% (inactive)

Ask: Identify measured growth inhibition associated with CN(C)CCOc1c(Cc2ccccc2)ccc2cccnc12
Result: 3.05% (inactive)

Ask: Identify measured growth inhibition associated with CC(CN(C)C)/C(=N\Nc1ccccc1)c1ccccc1 (stereo not drawn)
Result: 29.2% (inactive)

Ask: Identify measured growth inhibition associated with Cc1ccccc1NC(=O)CC(=O)n1nc(-c2ccccc2)c(N=Nc2ccc([N+](=O)[O-])cc2)c1-c1ccccc1
Result: 56% (inactive)

Ask: Identify measured growth inhibition associated with C1=C\CCCC/C=C/CC/1
Result: -13.1% (inactive)

Ask: Identify measured growth inhibition associated with Clc1ccc(-c2nnc(-c3ccc4ccccc4c3)o2)cc1
Result: -22.2% (inactive)

Ask: Identify measured growth inhibition associated with CC1=NC(=O)C(C)(c2ccccc2)N1CCc1ccccc1 (stereo not drawn)
Result: -8.75% (inactive)

Ask: Identify measured growth inhibition associated with N#C/C(=C\c1c(Cl)cccc1Cl)c1nc(-c2ccc(Cl)cc2)cs1
Result: -25.5% (inactive)
